Items are presented alongside their recorded koff.
Biological target: T1, canine IL-31 protein (Canine_IL31) (canine)
T1 chain: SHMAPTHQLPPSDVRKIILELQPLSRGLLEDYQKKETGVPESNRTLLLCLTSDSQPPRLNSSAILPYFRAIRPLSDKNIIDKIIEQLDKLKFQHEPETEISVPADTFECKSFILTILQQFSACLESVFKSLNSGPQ
Assay: SPR (Biacore), IL-31 on chip, 1:1 fit
readout type: koff (s⁻¹)

binder	experimental result
Feline 11E12 1.1 FW2 (antibody, V domains shown, Feline 11E12 VL1 with the mouse FW2; Feline heavy and kappa constant regions) VH: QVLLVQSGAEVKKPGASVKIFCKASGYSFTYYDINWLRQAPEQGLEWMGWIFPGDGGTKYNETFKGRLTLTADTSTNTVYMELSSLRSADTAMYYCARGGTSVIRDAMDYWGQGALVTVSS VL: EIQMTQSPSSLSASPGDRVTITCRASESVDNYGISFMHWYQQKPGQPPKLLIYRASNLESGVPSRFSGSGSGTDFTLTISSLEPEDAATYYCQQSNKDPLTFGQGT	0.000318
Feline 15H05 1.1 FW1_2 (antibody, V domains shown) VH: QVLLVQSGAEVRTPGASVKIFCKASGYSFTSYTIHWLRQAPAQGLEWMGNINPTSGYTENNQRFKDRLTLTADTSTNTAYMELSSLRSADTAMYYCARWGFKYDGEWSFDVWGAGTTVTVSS VL: DIQMNQSPSSLSASLGDTITVTCRASQGISIWLSWYQQKPGNIPKVLINKASNLHIGVPSRFSGSGSGTDFTLTISSLEPEDAATYYCLQSQTYPLTFGGGTKLEIK	3.82e-06
Feline 15H05 VH1 mouse VL (antibody, V domains shown, Heterochimeric antibody; also called felinized 15H05 VH1 with mouse 15H05 VL (heterochimera)) VH: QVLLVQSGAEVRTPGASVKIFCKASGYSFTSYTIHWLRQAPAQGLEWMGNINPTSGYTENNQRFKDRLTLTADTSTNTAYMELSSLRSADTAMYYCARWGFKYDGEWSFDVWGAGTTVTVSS VL: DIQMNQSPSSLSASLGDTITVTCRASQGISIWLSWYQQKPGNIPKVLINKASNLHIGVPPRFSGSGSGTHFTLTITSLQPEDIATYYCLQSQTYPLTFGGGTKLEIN	2.66e-07

Attribution: patent US20250136677A1
